Data provenance is paper PMC9424529.

Subject of test: T1, TPR domain of T. cruzi PEX5 (347–668) (T. cruzi, UniProt Q4DPQ9 347-668)
T1 construct: PEX5, Trypanosoma cruzi, C-terminal tetratricopeptide repeat (TPR) domain, residues 347-668; codon-optimised synthetic gene in the petHSU vector; The His-SUMO tag was cleaved on the column with dtUD1 protease; also called TcPEX5; TcPEX5 (TPR domain); source: E. coli BL21 (DE3), purified (HiTrap IMAC, on-column tag cleavage, SEC S75); not shown: His6, N-terminal, cleaved
T1 sequence (looked up): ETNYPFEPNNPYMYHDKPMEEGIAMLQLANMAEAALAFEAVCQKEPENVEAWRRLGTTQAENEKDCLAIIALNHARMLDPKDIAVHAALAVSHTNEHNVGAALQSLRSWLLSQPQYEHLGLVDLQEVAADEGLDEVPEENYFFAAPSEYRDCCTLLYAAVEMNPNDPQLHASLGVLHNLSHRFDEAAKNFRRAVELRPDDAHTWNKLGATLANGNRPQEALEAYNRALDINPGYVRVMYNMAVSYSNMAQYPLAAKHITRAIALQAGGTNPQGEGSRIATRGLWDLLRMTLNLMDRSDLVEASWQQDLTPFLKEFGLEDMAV
Method: fluorescence polarisation; competitive: increasing unlabeled PTS1 added to 30 nM TcPEX5 (f0 = 0.8) and 10 nM 6-FAM-PTS1; Ki by curve fitting
Test settings: both partners purified
Reported metric: pKi
Note: pKi values are expressed as the negative base-10 logarithm of concentration in M.

Recorded pKi of YQSKL (pentapeptide representing PTS1, without the label; also called PTS1 alone; unlabeled PTS peptide) [unlabeled PTS1 peptide] , please.
6.90
